- TGT: Transient receptor potential cation channel subfamily V member 1 (Homo sapiens) (UniProt Q8NER1)
- Sequence (Q8NER1 whole entry, looked up): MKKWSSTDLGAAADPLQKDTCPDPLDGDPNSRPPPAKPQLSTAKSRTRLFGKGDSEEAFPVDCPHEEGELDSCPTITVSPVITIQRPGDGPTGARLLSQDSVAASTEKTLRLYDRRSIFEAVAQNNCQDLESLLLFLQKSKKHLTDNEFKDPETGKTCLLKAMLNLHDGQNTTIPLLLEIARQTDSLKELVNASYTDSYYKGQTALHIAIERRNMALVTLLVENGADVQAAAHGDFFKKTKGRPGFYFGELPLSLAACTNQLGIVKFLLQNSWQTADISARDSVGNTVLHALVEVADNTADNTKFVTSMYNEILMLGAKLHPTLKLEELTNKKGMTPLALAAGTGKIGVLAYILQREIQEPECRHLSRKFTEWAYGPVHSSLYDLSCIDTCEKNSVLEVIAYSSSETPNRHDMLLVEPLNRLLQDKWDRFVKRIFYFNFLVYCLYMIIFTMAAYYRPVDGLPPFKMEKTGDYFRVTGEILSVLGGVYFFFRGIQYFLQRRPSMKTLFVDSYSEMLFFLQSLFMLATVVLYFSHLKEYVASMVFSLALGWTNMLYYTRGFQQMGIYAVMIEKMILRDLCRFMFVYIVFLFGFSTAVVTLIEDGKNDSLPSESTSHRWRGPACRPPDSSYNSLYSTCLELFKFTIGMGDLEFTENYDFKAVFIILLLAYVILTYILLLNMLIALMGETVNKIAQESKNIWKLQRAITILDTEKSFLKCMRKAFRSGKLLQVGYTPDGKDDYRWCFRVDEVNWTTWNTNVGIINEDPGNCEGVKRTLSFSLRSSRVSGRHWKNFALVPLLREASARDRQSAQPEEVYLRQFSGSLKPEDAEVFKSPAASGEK
- ASSAY_PROTOCOL: HTS Assay for Compounds that Act as Enhancers of the Vanilloid Receptor 1 (AID 488979)
- ASSAY_CONDITIONS: TRPV1-expressing cells, enhancer of channel activity, stimulated with capsaicin at EC20; series mostly up to 41.7 µM
Records with an inconclusive call do not appear. Activity calls are given as the source filed them. Calls follow the shape of the dose curve; as a rule, active = well fitted curve in the direction sought with a large enough effect; inconclusive = small, poorly fitted or top-dose-only effect, or effect the other way, or another doubt; inactive = no such curve, though single readings can be large or run the other way.
READOUT_LABEL: outcome

Known results for compounds:
Need outcome, item O=c1c(O)c(-c2ccc(O)c(O)c2)oc2cc(O)cc(O)c12
inactive

Need outcome, item COc1cc2nc(N3CCN(C(=O)C4COc5ccccc5O4)CC3)nc(N)c2cc1OC (configuration not stated)
inactive

Need outcome, item CCc1cccc2c3c([nH]c12)C(CC)(CC(=O)O)OCC3 (configuration not stated)
inactive

Need outcome, item Nc1ccn([C@H]2CC[C@@H](CO)O2)c(=O)n1
inactive

Need outcome, item CC(C)NCC(O)c1ccc(O)c(O)c1 (configuration not stated)
inactive

Further cases:
Need outcome, item CN1C(C(=O)Nc2ccccn2)=C(O)c2ccccc2S1(=O)=O
inactive

Need outcome, item COc1ccccc1N1CCN(CC(O)COc2cccc3ccccc23)CC1 (configuration not stated)
inactive

Need outcome, item C[C@](N)(Cc1ccc(O)c(O)c1)C(=O)O
inactive

Need outcome, item Cn1cnc2c1c(=O)[nH]c(=O)n2C
inactive

Need outcome, item Clc1ccccc1C(c1ccccc1)(c1ccccc1)n1ccnc1
inactive

Need outcome, item CN1CCN2c3ccccc3Cc3ccccc3C2C1 (configuration not stated)
inactive

Need outcome, item COc1ccccc1OCC(O)CN1CCN(CC(=O)Nc2c(C)cccc2C)CC1 (configuration not stated)
inactive

###

- Test system: CP215
- ASSAY_PROTOCOL: qHTS profiling for inhibitors of Plasmodium falciparum proliferation (AID 504749); also: nearly all actives have a fitted effect of over 60% in size; also: potency is read from the fitted curve at half-maximal effect
- ASSAY_CONDITIONS: P. falciparum in erythrocytes, SYBR Green DNA, 72 h; series mostly up to 28.7 µM
Results filed as inconclusive are left out. The source made the active and inactive calls. Calls follow the shape of the dose curve; as a rule, active = well fitted inhibition curve with a large enough effect; inconclusive = small, poorly fitted or top-dose-only effect; inactive = flat fitted curve, though single readings scatter.
READOUT_LABEL: Potency

Known results for molecules:
Entry COc1nc(C)nc(Cl)c1NC1=NCCN1 , system CP215: what Potency was measured?
inactive

Entry COc1ccccc1OCC(O)CN1CCN(CC(=O)Nc2c(C)cccc2C)CC1 (stereo unspecified) , system CP215: what Potency was measured?
inactive

Entry O=c1[nH]cc(F)c(=O)[nH]1 , system CP215: what Potency was measured?
inactive

Entry O=C(Nc1ccc([N+](=O)[O-])cc1Cl)c1cc(Cl)ccc1O , system CP215: what Potency was measured?
536 nM (active)

Entry CCOC(=O)c1ncn2c1CN(C)C(=O)c1cc(F)ccc1-2 , system CP215: what Potency was measured?
inactive

Further cases:
Entry CS(=O)(=O)CCNCc1ccc(-c2ccc3ncnc(Nc4ccc(OCc5cccc(F)c5)c(Cl)c4)c3c2)o1 , system CP215: what Potency was measured?
inactive

Entry Cc1cn([C@H]2C=C[C@@H](CO)O2)c(=O)[nH]c1=O , system CP215: what Potency was measured?
inactive

Entry Clc1ccccc1C(c1ccccc1)(c1ccccc1)n1ccnc1 , system CP215: what Potency was measured?
1140 nM (active)

Entry N[C@@H](Cc1c[nH]c2ccc(O)cc12)C(=O)O , system CP215: what Potency was measured?
inactive

Entry NC12CC3CC(CC(C3)C1)C2 , system CP215: what Potency was measured?
inactive

Entry CC(C)Cc1ccc(C(C)C(=O)O)cc1 (stereo unspecified) , system CP215: what Potency was measured?
inactive
